In this section, each of the compounds is paired with its reported IC50.
target: UniProtKB Q13304; assay: Calcium mobilization functional assay (GPR17 Ca2+ assay); assay type: cell-based; design: host or cells: Flp-In T-REx CHO; settings: CHO hGPR17 cells, inhibition of 50 nM MDL29,951, Calcium 5 dye, FLIPR; read-out: Ca2+ assay pIC50 (converted)
Sequence (Q13304 whole entry): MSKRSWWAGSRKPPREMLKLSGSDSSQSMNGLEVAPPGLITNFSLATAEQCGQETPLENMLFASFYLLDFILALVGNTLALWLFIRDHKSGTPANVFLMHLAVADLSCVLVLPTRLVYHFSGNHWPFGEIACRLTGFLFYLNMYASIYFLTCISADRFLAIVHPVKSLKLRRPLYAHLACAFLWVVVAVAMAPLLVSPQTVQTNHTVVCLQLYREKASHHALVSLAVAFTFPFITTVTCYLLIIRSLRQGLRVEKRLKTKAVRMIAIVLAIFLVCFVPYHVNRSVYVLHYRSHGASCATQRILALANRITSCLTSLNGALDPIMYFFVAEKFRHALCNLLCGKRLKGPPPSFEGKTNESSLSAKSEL

Recorded IC50, per entry:
>>> df
                                   compound         tested_on  property_measured   measured_value
0  N#Cc1ccc(NS(=O)(=O)c2c[nH]c3cc(OCc4ccccc4)ccc23)c(F)c1  UniProtKB Q13304               IC50        < 3.16 nM
1  [N-]=[N+]=Nc1ccc(NS(=O)(=O)c2c[nH]c3cc(Cl)ccc23)c(F)c1  UniProtKB Q13304               IC50  3.16 to 31.6 nM
2  O=S(=O)(Nc1cccc2c1OC(F)(F)O2)c1c[nH]c2cc(Cl)ccc12  UniProtKB Q13304               IC50  3.16 to 31.6 nM
3  COc1ccc2c(S(=O)(=O)Nc3cc(F)c(Cl)cc3F)c[nH]c2n1  UniProtKB Q13304               IC50  3.16 to 31.6 nM
4  O=S(=O)(Nc1ccc(I)cc1F)c1c[nH]c2cc(C(F)(F)F)ccc12  UniProtKB Q13304               IC50        > 31.6 nM
5  CCOCCc1cc(F)c(NS(=O)(=O)c2c[nH]c3cc(Cl)ccc23)nc1F  UniProtKB Q13304               IC50        < 3.16 nM

Lookup result for O=S(=O)(Nc1cccc2c1OC(F)(F)O2)c1c[nH]c2nc(Cl)ccc12 ; measured IC50: > 31.6 nM

Lookup result for N#Cc1ccc(NS(=O)(=O)c2c[nH]c3ncc(Cl)cc23)cc1 ; measured IC50: > 31.6 nM

Lookup result for N#CCOc1cc(F)c(NS(=O)(=O)c2c[nH]c3cc(Cl)ccc23)cc1F ; measured IC50: < 3.16 nM

Lookup result for C#Cc1ccc(NS(=O)(=O)c2c[nH]c3nc(Cl)ccc23)cc1 ; measured IC50: > 31.6 nM

Lookup result for N#Cc1ccc(NS(=O)(=O)c2c[nH]c3c2ccc2ccccc23)cc1 ; measured IC50: 3.16 to 31.6 nM

Lookup result for O=S(=O)(Nc1cc(F)c(Cl)cc1F)c1c[nH]c2nc(Cl)ccc12 ; measured IC50: < 3.16 nM

# credit: patent US12071404B2
